Data provenance is patent US20100041892A1.

Value kind: melting point

Item CC(C)CCS(=O)(=O)NC(=O)OCc1cc(OC(C)C)nn1Cc1ccc(Cl)cc1Cl [Example 141] has what recorded melting point?
104 to 107 °C

Item COCCOc1ccc(/C=C/COC(=O)NS(=O)(=O)NCCN2CCCC2)c(Oc2ncc(C(F)(F)F)cc2Cl)c1 [Example 434] has what recorded melting point?
154 to 156 °C

Item CCCCCS(=O)(=O)NC(=O)CCc1cc(OC(C)C)nn1Cc1ccc(F)cc1F [Example 80] has what recorded melting point?
107 to 108 °C

Item CCCCCS(=O)(=O)NC(=O)CCCc1ccc(OCCOC)cc1Oc1ncc(C(F)(F)F)cc1Cl [Example 74] has what recorded melting point?
96 to 97 °C

Item CCCCCS(=O)(=O)NC(=O)/C(=C/c1ccc(OCCOC)cc1Oc1ncc(C(F)(F)F)cc1Cl)CC [Example 183] has what recorded melting point?
104.5 to 105.6 °C

Item CC(C)Oc1cc(CCC(=O)NS(=O)(=O)CCCc2ccccc2)n(Cc2ccc(Cl)cc2Cl)n1 [Example 91] has what recorded melting point?
132 to 134 °C

Item CCCCCS(=O)(=O)NC(=O)/C=C/c1ccc(OCCOC)cc1Oc1ncc(Br)cc1C [Example 460] has what recorded melting point?
159.8 to 160.2 °C

Item CCCCCS(=O)(=O)NC(=O)CCc1cc(OCCCC)nn1Cc1ccc(Cl)cc1Cl [Example 97] has what recorded melting point?
104 to 105 °C

###

Counter-ions that a name gives are not always drawn.
Assignment: determine reported melting point for the given molecules.

Item `CCCCCS(=O)(=O)NC(=O)/C=C/c1cc(OC2CCOCC2)nn1Cc1ccc(C(F)(F)F)cc1Cl` has what recorded melting point?
160.5 to 161 °C

Item `CCCCOc1cc(/C=C/S(=O)(=O)NC(=O)OC(C)(C)C)n(Cc2ccc(Cl)cc2Cl)n1` has what recorded melting point?
152 to 153 °C

Item CCCCCS(=O)(=O)NC(=O)/C=C/c1ccc(OCC(C)(C)O)cc1Oc1ncc(C(F)(F)F)cc1Cl (as salt: acetate) (hydrate or solvate) has what recorded melting point?
98 to 100 °C

Item `CCCCCS(=O)(=O)NC(=O)CCc1cc(OCc2nnc(C)o2)nn1Cc1ccc(Cl)cc1Cl` has what recorded melting point?
156 to 158 °C

Item `COCCCNC(=O)OCCCc1ccc(OCCOC)cc1Oc1ncc(C(F)(F)F)cc1Cl` has what recorded melting point?
83.5 to 85 °C

Item `C/C(=C\c1ccc(OC(C)C)cc1Oc1ncc(C(F)(F)F)cc1Cl)C(=O)NS(=O)(=O)NCc1cnc(C)cn1` has what recorded melting point?
126 to 128 °C

Item `COCCOc1ccc(/C=C/COC(=O)NS(=O)(=O)N2CCCC2)c(Oc2ncc(C(F)(F)F)cc2Cl)c1` has what recorded melting point?
123 to 124 °C

###

Assignment: determine reported melting point for the given compounds.

Item CCCCCS(=O)(=O)NC(=O)/C=C/c1ccc(OCCOC)cc1Oc1ncc([N+](=O)[O-])cc1C [Example 185] has what recorded melting point?
148 to 150.3 °C

Item COCCOc1ccc(CCCOC(=O)NS(=O)(=O)NC2CCC(C)CC2)c(Oc2ncc(C(F)(F)F)cc2Cl)c1 (centres unmarked) [Example 205] has what recorded melting point?
121.5 to 121.8 °C

Item CCCCCOC(=O)NS(=O)(=O)CCc1cc(OCCCC)nn1Cc1ccc(Cl)cc1Cl [Example 135] has what recorded melting point?
91 to 93 °C

Item CCCCOc1cc(CCS(=O)(=O)NC(=O)OC(C)C)n(Cc2ccc(Cl)cc2Cl)n1 [Example 139] has what recorded melting point?
120 to 121 °C

Item Cc1ccccc1S(=O)(=O)NC(=O)CCc1cc(OC(C)C)nn1Cc1ccc(Cl)cc1Cl [Example 88] has what recorded melting point?
165 to 166 °C

Item CCCCCS(=O)(=O)NC(=O)/C=C/c1cc(OC2CCOCC2)nn1Cc1ccc(Cl)cc1Cl [Example 116] has what recorded melting point?
154 to 157 °C

Item COCCCS(=O)(=O)NC(=O)/C=C/c1cc(OCC2CC2)nn1Cc1ccc(C(F)(F)F)cc1Cl [Example 119] has what recorded melting point?
137 to 138 °C

Item CC(C)Oc1cc(CCC(=O)NS(C)(=O)=O)n(Cc2ccc(Cl)cc2Cl)n1 [Example 148] has what recorded melting point?
104 to 105 °C
